System: CP286
Run Description: qHTS profiling for inhibitors of Plasmodium falciparum proliferation (AID 504749); also: nearly all actives have a fitted effect of over 60% in size
Details: P. falciparum in erythrocytes, SYBR Green DNA, 72 h; series mostly up to 28.7 µM
Results filed as inconclusive are left out. Calls of active or inactive are those of the source. Calls follow the shape of the dose curve; as a rule, active = well fitted inhibition curve with a large enough effect; inconclusive = small, poorly fitted or top-dose-only effect; inactive = flat fitted curve, though single readings scatter.
One label from this list, please: YES (active), NO (inactive)

For C[C@H]1C[C@@H]2[C@@H]([C@@H](O)C[C@@]3(C)[C@H]2CC[C@]3(O)C(=O)CO)[C@@]2(C)C=CC(=O)C=C12 , which call appears in the assay record?
NO

For COC(=O)C1=C(C)NC(C)=C(C(=O)OCCN2CCN(C(c3ccccc3)c3ccccc3)CC2)C1c1cccc([N+](=O)[O-])c1 (stereo not given) , which call appears in the assay record?
YES

For Nc1ccn([C@@H]2O[C@H](CO)[C@H](O)C2(F)F)c(=O)n1 , which call appears in the assay record?
YES

For COc1cc(C(=O)NS(=O)(=O)c2ccccc2C)ccc1Cc1cn(C)c2ccc(NC(=O)OC3CCCC3)cc12 , which call appears in the assay record?
NO

For CCC1=C[C@@H]2CN(C1)Cc1c([nH]c3ccccc13)[C@@](C(=O)OC)(c1cc3c(cc1OC)N(C)[C@@H]1[C@@](O)(C(=O)OC)[C@H](OC(C)=O)[C@]4(CC)C=CCN5CC[C@]31[C@@H]54)C2 , which call appears in the assay record?
YES

For COC(=O)C[C@](O)(CCCC(C)(C)O)C(=O)O[C@@H]1C(OC)=C[C@]23CCCN2CCc2cc4c(cc2[C@H]13)OCO4 , which call appears in the assay record?
YES

For CN1c2cc(O)c(N=NC(N)=O)cc2CC1S(=O)(=O)O (stereo not given) , which call appears in the assay record?
NO

For Nc1ccn([C@@H]2CS[C@H](CO)O2)c(=O)n1 , which call appears in the assay record?
NO

For O=C(O)CO.[NH2-].[NH2-].[Pt+2] , which call appears in the assay record?
NO

For CC=CC1=C(C(=O)O)N2C(=O)[C@H](NC(=O)[C@H](N)c3ccc(O)cc3)[C@@H]2SC1 , which call appears in the assay record?
NO
